experimental.system: PARK7 (Homo sapiens, UniProt Q99497)
Sequence (Q99497 whole entry): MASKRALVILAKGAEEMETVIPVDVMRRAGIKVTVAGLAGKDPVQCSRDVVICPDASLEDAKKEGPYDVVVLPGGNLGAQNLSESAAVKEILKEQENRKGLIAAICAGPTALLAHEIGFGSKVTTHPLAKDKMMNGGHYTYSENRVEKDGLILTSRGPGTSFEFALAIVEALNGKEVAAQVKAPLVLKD
test.protocol: High-throughput screen of the crude compound library, PARK7 fluorescence polarization (FP) assay with FP reagent JYQ-107
Format: biochemical
applied.conditions: 1.25 µM, crude compound library; read-out: HTS FP assay %Inhibition (1.25 µM)
Text: Therefore, taking JYQ-88 as a starting point, we conducted an optimization to further improve the molecule in terms of inhibitory potency, specificity, and cellular uptake. […] We next performed a high-throughput screen of this crude compound library using our in-house developed PARK7 fluorescence polarization (FP) assay.[15]
The reader will find reported inhibition at 1.25 µM values listed item by item below.
The reply should contain only the number, in %.

As a guide, the following entries are already answered.
CCS(=O)(=O)N1CCC(C(=O)N2CCc3nc(NC(=O)[C@@H]4CCN(C#N)C4)sc3C2)(c2ccccc2)CC1 [compound 150] :: 62.5
N#CN1CC[C@@H](C(=O)Nc2nc3c(s2)CN(C(=O)c2csc(-c4ccncc4)n2)CC3)C1 [compound 214] :: 59.5
Cc1noc(C)c1COc1ccc(CC(=O)N2CCc3nc(NC(=O)[C@@H]4CCN(C#N)C4)sc3C2)cc1 [compound 107] :: 82.7
N#CN1CC[C@@H](C(=O)Nc2nc3c(s2)CN(C(=O)c2cccc(-c4cnco4)c2)CC3)C1 [compound 124] :: 85.6
Cn1ccnc1CN1CCC(C(=O)N2CCc3nc(NC(=O)[C@@H]4CCN(C#N)C4)sc3C2)CC1 [compound 265] :: 70.6

IN: Name the recorded inhibition at 1.25 µM for CCC(C(=O)N1CCc2nc(NC(=O)[C@@H]3CCN(C#N)C3)sc2C1)n1nnc(-c2ccsc2)n1 (stereo partly drawn) [compound 25] .
OUT: 65.2

IN: Looking for the measured inhibition at 1.25 µM of N#CN1CC[C@@H](C(=O)Nc2nc3c(s2)CN(C(=O)c2cc(S(N)(=O)=O)ccc2-c2cccc(C(F)(F)F)c2)CC3)C1 [compound 19] , can you help?
OUT: 69

IN: What inhibition at 1.25 µM value was documented for this molecule, N#CN1CC[C@@H](C(=O)Nc2nc3c(s2)CN(C(=O)c2csc(-c4cnc[nH]4)n2)CC3)C1 [compound 154] ?
OUT: 77.3

IN: Request the reported inhibition at 1.25 µM associated with Cc1nc(-c2ncccn2)sc1C(=O)N1CCc2nc(NC(=O)[C@@H]3CCN(C#N)C3)sc2C1 [compound 75]
OUT: 72
